Provenance of the data: patent US20230391776A1

- method: Pharmacokinetic study of mice
- Assay type: in vivo
- condition_notes: mouse, plasma; CD-1 male mice, IV 3 mg/kg; read-out: Clearance rate CL
experimental_readout: clearance (mL/min/kg)
Write down the numeric answer in mL/min/kg and omit the unit.

Worked cases, answers included:
| smiles | unit_string | clearance |
| --- | --- | --- |
| Cc1cc(-c2nc(C(=O)Nc3cn4cc(C(C)(C)O)nc4cc3-c3ccccc3)co2)ccn1 | mL/min/kg | 5.9 |
| CC(C)(O)c1cn2cc(NC(=O)c3coc(-c4ccnc(N)c4F)n3)c(-c3ccccc3)cc2n1 | mL/min/kg | 28.2 |

We next turn to a different compound, shown below.
# input I'd like to know its clearance. The compound in question is CC(C)(O)c1cn2cc(NC(=O)c3coc(-c4ccnc(N)c4)n3)c(-c3ccccc3)cc2n1
# output 15.1

###

- method: Pharmacokinetics of rats
- Type: in vivo
- condition_notes: rat, plasma; SD male rats, PO 3 mg/kg; read-out: Area under the plasma concentration-time curve AUC
experimental_readout: AUC (µM·h)
Write down the numeric answer in µM·h and omit the unit.

| smiles | AUC / µM·h |
| --- | --- |
| Cc1cc(-c2nc(C(=O)Nc3cn4cc(C(C)(C)O)nc4cc3-c3ccccc3)co2)ccn1 | 59.1 |
| CC(C)(O)c1cn2cc(NC(=O)c3coc(-c4ccnc(N)c4)n3)c(-c3ccccc3)cc2n1 | 4.77 |

We next turn to a different molecule, shown below.
# input I'd like to know its AUC. The molecule in question is CC(C)(O)c1cn2cc(NC(=O)c3coc(-c4ccnc(N)c4F)n3)c(-c3ccccc3)cc2n1
# output 10.2

###

- method: Pharmacokinetics of rats
- Type: in vivo
- condition_notes: rat, plasma; SD male rats, IV 1 mg/kg; read-out: Apparent volume of distribution Vdss
experimental_readout: Vd (L/kg)
Write down the numeric answer in L/kg and omit the unit.

Worked cases, answers included:
| molecule | Vd (L/kg) |
| --- | --- |
| Cc1cc(-c2nc(C(=O)Nc3cn4cc(C(C)(C)O)nc4cc3-c3ccccc3)co2)ccn1 [WX009] | 0.2 |
| CC(C)(O)c1cn2cc(NC(=O)c3coc(-c4ccnc(N)c4)n3)c(-c3ccccc3)cc2n1 [WX017] | 0.8 |

We next turn to a different molecule, shown below.
# input I'd like to know its Vd. The molecule in question is CC(C)(O)c1cn2cc(NC(=O)c3coc(-c4ccnc(N)c4F)n3)c(-c3ccccc3)cc2n1 [WX027]
# output 0.3

###

Parameter: half-life. Scope: all listed entries.
- method: Pharmacokinetics of rats
- Type: in vivo
- condition_notes: rat, plasma; SD male rats, IV 1 mg/kg; read-out: Half-life T1/2 (converted)

Worked cases, answers included:
| smiles | half-life |
| --- | --- |
| CC(C)(O)c1cn2cc(NC(=O)c3coc(-c4ccnc(N)c4F)n3)c(-c3ccccc3)cc2n1 | 1.4 h |
| Cc1cc(-c2nc(C(=O)Nc3cn4cc(C(C)(C)O)nc4cc3-c3ccccc3)co2)ccn1 | 2.5 h |

We next turn to a different molecule, shown below.
# input I'd like to know its half-life. The molecule in question is CC(C)(O)c1cn2cc(NC(=O)c3coc(-c4ccnc(N)c4)n3)c(-c3ccccc3)cc2n1
# output 4.1 h

###

- method: Pharmacokinetics of rats
- Format: in vivo
- condition_notes: rat, plasma; SD male rats, PO 3 mg/kg
experimental_readout: bioavailability (%)
Write down the numeric answer in % and omit the unit.

Worked cases, answers included:
| molecule | bioavailability / % |
| --- | --- |
| CC(C)(O)c1cn2cc(NC(=O)c3coc(-c4ccnc(N)c4)n3)c(-c3ccccc3)cc2n1 [WX017] | 29 |
| Cc1cc(-c2nc(C(=O)Nc3cn4cc(C(C)(C)O)nc4cc3-c3ccccc3)co2)ccn1 [WX009] | 55 |

# input I'd like to know its bioavailability. The molecule in question is CC(C)(O)c1cn2cc(NC(=O)c3coc(-c4ccnc(N)c4F)n3)c(-c3ccccc3)cc2n1 [WX027]
# output 38

###

- Tested on: OCI-LY10 human diffuse large B lymphoma cells
- method: OCI-LY10 cell proliferation (Cell Titer Glo)
- Type: cell-based
- condition_notes: 72 hours
Rule for this label: Fulfilled means IC50 is less than 30 nM; Not fulfilled means IC50 is at least 30 nM.

The examples below pair each entry with its known result.
| smiles | label_value |
| --- | --- |
| Cc1nccc(-c2nc(C(=O)Nc3cn4cc(C(C)(C)O)nc4cc3-c3ccccc3)co2)c1Cl | Fulfilled |
| Cc1cc(-c2nc(C(=O)Nc3cn4cc(C(C)(C)O)nc4cc3-c3ccccc3)co2)ccn1 | Not fulfilled |
| Cc1cc(-c2nc(C(=O)Nc3cn4cc(S(C)(=O)=O)nc4cc3-c3ccccc3)co2)ccn1 | Not fulfilled |
| CN(C)CCc1cn2cc(NC(=O)c3coc(-c4ccnc(N)c4)n3)c(-c3ccccc3)cc2n1 | Fulfilled |
| CC(C)(O)c1cn2cc(NC(=O)c3coc(-c4ccnc(N)c4F)n3)c(-c3ccccc3)cc2n1 | Fulfilled |
| CN(C)CCc1cn2cc(NC(=O)c3coc(-c4ccnc(N)c4)n3)c(N3CCCCC3)cc2n1 | Fulfilled |
| CS(=O)(=O)CCc1cn2cc(NC(=O)c3coc(-c4ccnc(N)c4)n3)c(N3CCCCC3)cc2n1 | Fulfilled |
| CC(C)(O)CCc1cn2cc(NC(=O)c3coc(-c4ccnc(N)c4)n3)c(N3CCCCC3)cc2n1 | Fulfilled |
| CC(C)(O)c1cn2cc(NC(=O)c3coc(-c4ccnc(N)c4)n3)c(-c3ccccc3)cc2n1 | Fulfilled |
| CS(=O)(=O)CCc1cn2cc(NC(=O)c3coc(-c4ccnc(N)c4)n3)c(-c3ccccc3)cc2n1 | Fulfilled |

# input Strictly below 30 nM: is that where IC50 of Cc1cc(-c2nc(C(=O)Nc3cn4cc(CCS(C)(=O)=O)nc4cc3-c3ccccc3)co2)ccn1 sits?
# output Fulfilled

# input Strictly below 30 nM: is that where IC50 of Cc1cc(-c2nc(C(=O)Nc3cn4cc(CCN(C)C)nc4cc3-c3ccccc3)co2)ccn1 sits?
# output Not fulfilled

# input Strictly below 30 nM: is that where IC50 of CNc1cc(-c2nc(C(=O)Nc3cn4cc(C(C)(C)O)nc4cc3-c3ccccc3)co2)ccn1 sits?
# output Fulfilled

# input Strictly below 30 nM: is that where IC50 of CNc1cc(-c2nc(C(=O)Nc3cn4cc(CCC(C)(C)O)nc4cc3N3CCCCC3)co2)ccn1 sits?
# output Not fulfilled

# input Strictly below 30 nM: is that where IC50 of CC(=O)Nc1cc(-c2nc(C(=O)Nc3cn4cc(CCC(C)(C)O)nc4cc3N3CCCCC3)co2)ccn1 sits?
# output Not fulfilled

###

- method: Pharmacokinetic study of mice
- Assay type: in vivo
- condition_notes: mouse, plasma; CD-1 male mice, IV 3 mg/kg; read-out: Apparent volume of distribution Vdss
experimental_readout: Vd
For clarity, give the value followed by its unit.

| smiles | result |
| --- | --- |
| Cc1cc(-c2nc(C(=O)Nc3cn4cc(C(C)(C)O)nc4cc3-c3ccccc3)co2)ccn1 | 1.5 L/kg |
| CC(C)(O)c1cn2cc(NC(=O)c3coc(-c4ccnc(N)c4)n3)c(-c3ccccc3)cc2n1 | 0.5 L/kg |

# input I'd like to know its Vd. The molecule in question is CC(C)(O)c1cn2cc(NC(=O)c3coc(-c4ccnc(N)c4F)n3)c(-c3ccccc3)cc2n1
# output 0.8 L/kg

###

- Test system: TMD-8 human diffuse large B lymphoma cells
- method: TMD-8 cell proliferation (Cell Titer Glo)
- Type: cell-based
- condition_notes: TMD8, 72 hours
Parameter: pIC50. Scope: all listed entries.
Friendly reminder that pIC50 comes from taking -log10 of the concentration in mol/L.

| smiles | target_system | numeric_value |
| --- | --- | --- |
| CN(C)CCc1cn2cc(NC(=O)c3coc(-c4ccnc(N)c4)n3)c(-c3ccccc3)cc2n1 | TMD-8 human diffuse large B lymphoma cells | 8.22 |
| Cc1cc(-c2nc(C(=O)Nc3cn4cc(C(C)(C)O)nc4cc3-c3ccccc3)co2)ccn1 | TMD-8 human diffuse large B lymphoma cells | 7.43 |

# input I'd like to know its pIC50. The compound in question is CS(=O)(=O)CCc1cn2cc(NC(=O)c3coc(-c4ccnc(N)c4)n3)c(-c3ccccc3)cc2n1
# output 7.70

# input I'd like to know its pIC50. The compound in question is Cc1nccc(-c2nc(C(=O)Nc3cn4cc(C(C)(C)O)nc4cc3-c3ccccc3)co2)c1Cl
# output 7.78

# input I'd like to know its pIC50. The compound in question is CC(C)(O)CCc1cn2cc(NC(=O)c3coc(-c4ccnc5[nH]ccc45)n3)c(N3CCCCC3)cc2n1
# output 6.49

# input I'd like to know its pIC50. The compound in question is CNc1cc(-c2nc(C(=O)Nc3cn4cc(CCC(C)(C)O)nc4cc3N3CCCCC3)co2)ccn1
# output 6.74

# input I'd like to know its pIC50. The compound in question is CS(=O)(=O)CCc1cn2cc(NC(=O)c3coc(-c4ccnc(N)c4)n3)c(N3CCCCC3)cc2n1
# output 7.55

# input I'd like to know its pIC50. The compound in question is CN(C)CCc1cn2cc(NC(=O)c3coc(-c4ccnc(N)c4)n3)c(N3CCCCC3)cc2n1
# output 7.40

# input I'd like to know its pIC50. The compound in question is CC(C)(O)c1cn2cc(NC(=O)c3coc(-c4ccnc(N)c4F)n3)c(-c3ccccc3)cc2n1
# output 7.49

# input I'd like to know its pIC50. The compound in question is CC(C)(O)c1cn2cc(NC(=O)c3coc(-c4ccnc(N)c4)n3)c(-c3ccccc3)cc2n1
# output 8.00

# input I'd like to know its pIC50. The compound in question is CC(C)(O)CCc1cn2cc(NC(=O)c3coc(-c4ccnc(N)c4)n3)c(N3CCCCC3)cc2n1
# output 8.00
